# credit: the NIST ThermoML archive (doi:10.1016/j.jct.2016.07.005)

measurement protocol: xn = mol fraction of the nth substance listed
conditions: 308.15 K; 100 kPa; Liquid; Vibrating tube method; x1 = 0.1
parameter measured: mass density (kg/m3)
Quick note: give the figure in kg/m3, leave out the unit.

Problem: Report mass density for CN1CCC[C@H]1c1cccnc1 [(-)-3-(N-methylpyrrolidino)pyridine] + CCC(C)O please.
Solution: 829.273

Problem: Cool, now CN1CCC[C@H]1c1cccnc1 [(-)-3-(N-methylpyrrolidino)pyridine] + CC(O)CO
Solution: 1023.28

Problem: Then what about the compound CN1CCC[C@H]1c1cccnc1 [(-)-3-(N-methylpyrrolidino)pyridine] + OCCCO ?
Solution: 1039.14

Problem: // next record CN1CCC[C@H]1c1cccnc1 [(-)-3-(N-methylpyrrolidino)pyridine] + CCCCO
Solution: 833.229
